biological target: JAK3 (Homo sapiens, UniProt P52333); construct: 5 μl of catalytic domain recombinant Kinase enzyme+Tyr peptide substrate (Invitrogen, CA); experiment: Z'-LYTE kinase assay JAK3
Sequence (P52333 822-1111 limits assumed): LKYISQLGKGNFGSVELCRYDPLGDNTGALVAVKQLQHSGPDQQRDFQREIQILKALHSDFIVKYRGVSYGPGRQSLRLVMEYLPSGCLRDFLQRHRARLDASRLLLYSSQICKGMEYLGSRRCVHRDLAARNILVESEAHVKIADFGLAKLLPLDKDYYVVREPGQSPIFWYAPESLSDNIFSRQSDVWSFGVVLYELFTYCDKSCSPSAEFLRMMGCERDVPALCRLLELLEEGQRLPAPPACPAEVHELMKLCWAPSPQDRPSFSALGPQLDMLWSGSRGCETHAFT
pIC50: −log10 of the molar value.
endpoint.name: pIC50

INSERT INTO assay_data (compound, tested_on, result) VALUES
  ('Cc1cc(Nc2cc(NCc3cccc4ccsc34)c(C(N)=O)cn2)ccc1C(=O)N1CCOCC1 [Example 459]', 'JAK3 (Homo sapiens, UniProt P52333)', '8.00 to 9.00'),
  ('NC(=O)c1cnc(Nc2ccc(N3CCOCC3)cc2)c(Cl)c1NCc1cccc(F)c1 [Example 377]', 'JAK3 (Homo sapiens, UniProt P52333)', '6.00 to 7.00'),
  ('COc1ccc(Nc2cc(NCc3ccncn3)c(C(N)=O)cn2)cc1 [Example 298]', 'JAK3 (Homo sapiens, UniProt P52333)', '6.00 to 7.00'),
  ('NC(=O)c1cnc(Nc2ccc(C(=O)NCC(F)(F)F)cc2)cc1NCc1cncc(F)c1 [Example 313]', 'JAK3 (Homo sapiens, UniProt P52333)', '7.00 to 8.00'),
  ('CS(=O)(=O)Nc1cccc(Nc2cc(NCc3ccccc3)c(C(N)=O)cn2)c1 [Example 388]', 'JAK3 (Homo sapiens, UniProt P52333)', '8.00 to 9.00'),
  ('NC(=O)c1cnc(Nc2ccc(CC(=O)N3CCOCC3)cc2)cc1NCc1ccccc1 [Example 330]', 'JAK3 (Homo sapiens, UniProt P52333)', '8.00 to 9.00'),
  ('NC(=O)c1cnc(Nc2ccc(C3CCN(CC(F)F)CC3)cc2)cc1NCc1cccc(F)c1F [Example 216]', 'JAK3 (Homo sapiens, UniProt P52333)', '7.00 to 8.00'),
  ('Cc1cc(Nc2cc(NCc3cccc(F)c3)c(C(N)=O)cn2)ccc1N1CCCC1=O [Example 61]', 'JAK3 (Homo sapiens, UniProt P52333)', '8.00 to 9.00'),
  ('CN(C)S(=O)(=O)NCc1ccc(Nc2cc(NCc3cccc4ccsc34)c(C(N)=O)cn2)cc1 [Example 355]', 'JAK3 (Homo sapiens, UniProt P52333)', '8.00 to 9.00'),
  ('CC(=O)Nc1cccc(Nc2nc(N[C@H](C)c3ccccc3)c(C(N)=O)cc2F)c1 [Example 20]', 'JAK3 (Homo sapiens, UniProt P52333)', '< 6.00'),
  ('NC(=O)c1cnc(Nc2ccc(N3CCCC3=O)c(Cl)c2)cc1NCc1cccc(F)c1 [Example 62]', 'JAK3 (Homo sapiens, UniProt P52333)', '7.00 to 8.00'),
  ('Cc1ccc(Nc2cc(NCc3cncc(F)c3)c(C(N)=O)cn2)cc1 [Example 311]', 'JAK3 (Homo sapiens, UniProt P52333)', '7.00 to 8.00'),
  ('CC(C)(C)CNc1cc(Nc2ccc(C3CCOCC3)cc2)ncc1C(N)=O [Example 155]', 'JAK3 (Homo sapiens, UniProt P52333)', '6.00 to 7.00'),
  ('CC(=O)NCc1ccc(Nc2cc(NCc3cccc4ccsc34)c(C(N)=O)cn2)cc1 [Example 352]', 'JAK3 (Homo sapiens, UniProt P52333)', '8.00 to 9.00'),
  ('COc1ccc(Nc2cc(NCc3ccccc3)c(C(N)=O)cn2)cc1OC [Example 293]', 'JAK3 (Homo sapiens, UniProt P52333)', '7.00 to 8.00'),
  ('COc1ccc(Nc2cc(NC[C@@H]3CCCN(C(=O)N(C)C)C3)c(C(N)=O)cn2)cc1 [Example 53]', 'JAK3 (Homo sapiens, UniProt P52333)', '6.00 to 7.00'),
  ('CN(C)C(=O)N1CC(c2ccc(Nc3cc(NCc4ccccc4)c(C(N)=O)cn3)cc2)C1 [Example 337]', 'JAK3 (Homo sapiens, UniProt P52333)', '8.00 to 9.00');
